Target: SETD2(1434-1711) (Homo sapiens)
Construct: SETD2 (1434-1711) Assay; catalogue N/A
Sequence (Q9BYW2 1434-1711): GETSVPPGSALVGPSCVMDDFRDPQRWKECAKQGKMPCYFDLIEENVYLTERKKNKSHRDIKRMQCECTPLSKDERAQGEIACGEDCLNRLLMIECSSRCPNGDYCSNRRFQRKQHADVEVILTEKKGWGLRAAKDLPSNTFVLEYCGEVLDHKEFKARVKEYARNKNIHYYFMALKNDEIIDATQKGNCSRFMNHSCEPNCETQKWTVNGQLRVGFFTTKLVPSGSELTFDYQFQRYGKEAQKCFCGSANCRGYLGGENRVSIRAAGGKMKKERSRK
Experiment: SETD2 (1434-1711) assay
Format: biochemical
Details: read-out: SETD2 (1434-1711)
pIC50: −log10 of the molar value.
assay_metric: pIC50

Known pIC50 results, listed for orientation:
CCC1CN(c2cccc(NC(=O)c3cc4c(F)ccc(C)c4[nH]3)c2)CCN1C(C)=O (stereo not shown) :: 7.40
Cc1cc(C(=O)N[C@H]2CC[C@H]2N)cnc1C(NC(=O)c1cc2cccc(C)c2[nH]1)C1CC1 (stereo partly shown) :: 6.40
Cc1ccc(F)c2cc(C(=O)N[C@@H]3CCC[C@@H](N4CCN(C(=O)C5CC5)CC4)C3)[nH]c12 :: 5.64
Cc1ccc(F)c2cc(C(=O)Nc3cccc(C4(C#N)CCC(N(C)C)CC4)c3)[nH]c12 (stereo not shown) :: 7.52
Cc1ccc(F)c2cc(C(=O)NC3CCCC(N4CCN(C5CC5)C(=O)C4)C3)[nH]c12 (stereo not shown) [compound 977] :: 7.70
Cc1cc(C(=O)N[C@@H]2CC[C@@H]2N)cnc1C(NC(=O)c1cc2cccc(C)c2[nH]1)C1CC1 (stereo partly shown) :: 4.47

P: Cc1ccc(F)c2cc(C(=O)Nc3cccc(N4CCC(C)(N(C)C)CC4)c3)[nH]c12
Q: Cc1ccc(=O)[nH]c1C(NC(=O)c1cc2cccc(C)c2[nH]1)C1CC1 (stereo not shown)
R: Cc1cccc2cc(C(=O)Nc3cccc(N4CCN(S(=O)(=O)C5CCC(N)CC5)CC4)c3)[nH]c12 (stereo not shown)
# desc sort on pIC50 across 3 compounds Put the labels in the requested order and write them down. P, R, Q
(P: 7.70, R: 7.00, Q: 5.31)

P: Cc1ccc(F)c2cc(C(=O)Nc3cccc(C4CCN5C(=O)CCC5C4)c3)[nH]c12 (stereo not shown)
Q: Cc1ccc(F)c2cc(C(=O)Nc3cccc(-c4nncn4C)c3)[nH]c12
Lab log: flag the item ( P or Q ) with the smaller pIC50 figure. Let me know the label of the one you choose. Q
(Q: 7.00, P: 7.70)

A: Cc1ccc(F)c2cc(C(=O)NC3CCCC(N4CCC5(CCC(=O)N5CC(F)(F)F)CC4)C3)[nH]c12 (stereo not shown) [compound 966]
B: Cc1ccc(F)c2cc(C(=O)Nc3cccc(-c4noc(=O)[nH]4)c3)[nH]c12
C: Cc1ccc[n+]([O-])c1C(NC(=O)c1cc2cccc(C)c2[nH]1)C1CC1 (stereo not shown)
Sort ascending by pIC50. Put the labels in the requested order and write them down. C, B, A
